System: human tumor cells (as indicated)
Test: Proliferation assay, crystal violet staining, other human tumor cells as indicated in the tables
Type: cell-based
Conditions: NCI-H460, 96 h, H460 cells, 4 days incubation, read-out: Proliferation IC50 [μM] H460
RECORDED_ENDPOINT: IC50 (µM)

CC(C)[C@H](CO)Nc1nc(Nc2ccc(S(N)(=O)=O)cc2)ncc1Br | 0.5
CC(=O)c1ccc(Nc2ncc(Br)c(NCC3CC3)n2)cc1 | 1.6
C#CCNc1nc(Nc2ccc([S+](C)[O-])cc2)ncc1Br (stereo not drawn) | 1.5
C#CCNc1nc(Nc2cccc(S(N)(=O)=O)c2)ncc1Br | 0.6
C#CCOc1nc(Nc2ccc(OCC3CO3)cc2)ncc1Br (stereo not drawn) | 3
CCC(Nc1nc(Nc2ccc(S(N)(=O)=O)cc2)ncc1Br)C(=O)OC (stereo not drawn) | 1.7
C#CCNc1nc(Nc2ccc(S(N)(=O)=O)cc2)ncc1Br | 0.5
NS(=O)(=O)c1ccc(Nc2ncc(Br)c(OCCCC(F)(F)F)n2)cc1 | 1.8
CC(C)[C@H](CO)Nc1nc(Nc2ccc(S(=O)(=O)NCCO)cc2)ncc1Br | 1

###

Molecular target: CDK2/CycE (Homo sapiens)
Construct: GST; purchased Dr. Dieter Marmé, Klinik für Tumorbiologie, Freiburg; host or cells: baculovirus-infected Sf9 insect cells
Assay: CDK2/CycE kinase assay (enzyme test)
Format: biochemical
Conditions: read-out: Inhibition IC50 [nM] CDK2/CycE
Reported values of IC50 for individual entries
RECORDED_ENDPOINT: IC50 (nM)

C#CCNc1nc(Nc2ccc(C(C)=O)cc2)ncc1Br | 150
CC(=O)c1ccc(Nc2ncc(Br)c(NCC3CC3)n2)cc1 | 200
C#CCNc1nc(Nc2cccc(SC)c2)ncc1Br | 300
CCOCCOCCOc1nc(Nc2ccc(C(C)=O)cc2)ncc1Br | 3000
O=S(=O)(CCO)c1cccc(Nc2ncc(Br)c(NC(CO)CO)n2)c1 | 800
C#CCNc1nc(Nc2ccc(SC(F)F)cc2)ncc1Br | 180
COC[C@H](C)Nc1nc(Nc2ccc(SC)cc2)ncc1Br | 400
C#CCNc1nc(Nc2cccc(S(N)(=O)=O)c2)ncc1Br | 30
C#CCNc1nc(Nc2ccc(O)cc2)ncc1Br | 90
C#CCOc1nc(Nc2ccc(C(C)=O)cc2)ncc1Br | 40
NS(=O)(=O)c1ccc(Nc2ncc(Br)c(NCC3CC3)n2)cc1 | 7
C#CCNc1nc(Nc2ccc(S(N)(=O)=O)cc2)ncc1Br | 6
NS(=O)(=O)c1ccc(Nc2ncc(Br)c(NC(CO)CO)n2)cc1 | 7
CCC(Nc1nc(Nc2ccc(S(N)(=O)=O)cc2)ncc1Br)C(=O)OC (stereo not drawn) | 10
C#CCNc1nc(Nc2ccc(SC(F)(F)F)cc2)ncc1Br | 400
NS(=O)(=O)c1ccc(Nc2ncc(Br)c(OCCCC(F)(F)F)n2)cc1 | 12
C#CCNc1nc(Nc2ccc3c(c2)CCN3S(C)(=O)=O)ncc1Br | 300
C#CCNc1nc(Nc2ccc(S(N)(=O)=O)cc2)ncc1Cl | 8
NS(=O)(=O)c1ccc(Nc2ncc(Br)c(NCCCC(=O)O)n2)cc1 | 50
COC[C@H](C)Nc1nc(Nc2ccc(O)cc2)ncc1Br | 300
C#CCNc1nc(Nc2cccc(S(=O)(=O)NCCCC)c2)ncc1Br | 1800
C#CCOc1nc(Nc2ccc(OCC(O)CN3CCN(Cc4ccc5c(c4)OCO5)CC3)cc2)ncc1Br (stereo not drawn) | 400
C#CCOc1nc(Nc2cccc(OCC3CO3)c2)ncc1Br (stereo not drawn) | 70
C#CCOc1nc(Nc2cccc(O)c2)ncc1Br | 60
CC(C)[C@H](CO)Nc1nc(Nc2ccc(O)cc2)ncc1Br | 40
CC(C)[C@H](CO)Nc1nc(Nc2ccc(S(=O)(=O)NCCO)cc2)ncc1Br | 4
CC(=O)c1ccc(Nc2ncc(Br)c(OCCCC(F)(F)F)n2)cc1 | 400
O=S(=O)(CCO)c1cccc(Nc2ncc(Br)c(NCCN3CCOCC3)n2)c1 | 2000
CC(=O)c1ccc(Nc2ncc(Br)c(N[C@H](CO)C(C)C)n2)cc1 | 300
C#CCNc1nc(Nc2ccc(SC)cc2)ncc1Br | 300
CSc1ccc(Nc2ncc(Br)c(N[C@@H](CO)C(C)C)n2)cc1 | 300
C#CCOc1nc(Nc2ccc(O)cc2)ncc1Br | 70
COC[C@H](C)Nc1nc(Nc2cccc(S(=O)(=O)CCO)c2)ncc1Br | 1000
CSc1ccc(Nc2ncc(Br)c(NCCN3CCOCC3)n2)cc1 | 2000
OCC(CO)Nc1nc(Nc2ccc(O)cc2)ncc1Br | 200
CC(=O)c1ccc(Nc2ncc(Br)c(N[C@@H](CO)C(C)C)n2)cc1 | 80
C#CCNc1nc(Nc2ccc3scnc3c2)ncc1Br | 80
